This section presents molecules with their documented melting point values.

{"line.notation": "COc1ccc2nc(NC(=O)Nc3ccc(O)c(Cl)c3)sc2c1", "assay.result": "281 to 283 °C"}
{"line.notation": "O=C(Nc1ccc(O)c(Cl)c1)Nc1nc2cc(Cl)ccc2[nH]1", "assay.result": "256 to 258 °C"}
{"line.notation": "O=C(Nc1ccc(O)c(Cl)c1)Nc1nc2ccc(Cl)cc2o1", "assay.result": "188.5 to 190.5 °C"}

Form field melting point, entry COc1ccc2nc(NC(=O)Nc3cc(F)c(O)c(F)c3)sc2c1 : 161 to 162 °C

Recorded result, COc1c(Cl)cc(NC(=O)Nc2nc3ccc(Cl)cc3s2)cc1C(=O)O , melting point: 263.5 to 265 °C

# melting point (molecule: O=C(Nc1ccc(O)c(Cl)c1)Nc1nc2ccccc2[nH]1 ) is 264 to 266 °C

Note to self: melting point recorded for COc1cc(F)ccc1NC(=O)Nc1nc2ccc(F)cc2s1 was 364 to 366 °C (dec.)

Summary for this molecule, O=C(Nc1nc2ccc(F)cc2s1)Nc1ccc(F)c(F)c1O : melting point is 209 to 210 °C

Item: O=C(Nc1ccc(O)c(Cl)c1)Nc1nc2cccc(Cl)c2s1 | melting point: 272 to 274 °C

The recorded melting point for O=C(Nc1ccc(O)c(Cl)c1)Nc1nc2c(Cl)cccc2s1 is 237 to 239 °C

For reference, reported melting point for O=C(Nc1ccc(O)c(Cl)c1)Nc1nc2cc(Cl)ccc2s1 stands at 317.5 to 319 °C

Memo: O=C(Nc1nc2ccc(F)cc2s1)Nc1ccc(F)cc1O , reported melting point: 226 to 228 °C (dec.)

Query O=C(Nc1nc2ccc(Cl)cc2s1)Nc1ccc(O)cc1Cl yields melting point of 283 to 285 °C

Briefly, melting point measured for O=C(Nc1ccc(O)c(Cl)c1)Nc1nc2cc(Br)ccc2s1 : 319 to 321 °C

The reported melting point of the molecule COc1cc(F)ccc1NC(=O)Nc1nc2ccc(Cl)cc2s1 was 356 to 358 °C (dec.)

molecule COc1ccc(NC(=O)Nc2nc3ccc(Cl)cc3s2)cc1O , melting point observed: 281 to 283 °C

Quick note, melting point for O=C(Nc1cc(Cl)c(O)c(C(=O)O)c1)Nc1nc2ccc(Cl)cc2s1 landed at 268 to 270 °C

Looking up O=C(Nc1nc2ccc(Cl)cc2s1)Nc1ccc(O)cc1O , I found its melting point recorded as 241 to 243 °C

Please fill in: melting point reported for O=C(Nc1ccc(O)c(F)c1)Nc1nc2ccc(Cl)cc2s1 = 281 to 282 °C (dec.)

Reported melting point ( O=C(Nc1nc2ccc(Cl)cc2s1)Nc1ccc(F)c(F)c1O ) = 212 to 213 °C

###

biological target: human 17β-HSD10 enzyme (Homo sapiens, UniProt Q99714); construct: made in house; host or cells: Escherichia coli BL21 (DE3); experiment: 17β-HSD10 enzyme inhibition screening and IC50 determination (AAC reductase assay, NADH absorbance at 340 nm); assay type: biochemical; settings: 10 μM compound; 320 μM AAC, 320 μM NADH, 37 °C; read-out: Percentage of Residual Activity at 10 μM
Sequence (Q99714 whole entry): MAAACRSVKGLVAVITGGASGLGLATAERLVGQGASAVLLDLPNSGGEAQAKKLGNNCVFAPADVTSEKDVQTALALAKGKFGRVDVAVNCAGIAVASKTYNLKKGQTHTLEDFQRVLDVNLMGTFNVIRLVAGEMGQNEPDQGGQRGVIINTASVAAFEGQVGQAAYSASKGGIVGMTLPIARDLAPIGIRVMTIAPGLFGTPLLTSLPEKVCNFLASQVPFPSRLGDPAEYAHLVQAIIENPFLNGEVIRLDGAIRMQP
readout.kind: remaining activity at 10 µM (%)

{"line.notation": "O=C(Nc1ccc(O)c(Cl)c1)Nc1nc2ccc(C(F)(F)F)cc2s1", "measurement.units": "%", "remaining activity at 10 µM": 49}

[I] O=C(Nc1ccc(O)c(Cl)c1)Nc1nc2cc(Br)ccc2s1
[II] O=C(Nc1ccc(O)c(Cl)c1)Nc1nc2ccc(O)cc2s1
**Query** Quick one: lower remaining activity at 10 µM, I or II ? Answer by stating the label of the chosen item.
**Result** II
(II: 25.9%, I: 54.1%)
